B1: Subtilisin-chymotrypsin inhibitor-2A, P01053 (parent)
chain: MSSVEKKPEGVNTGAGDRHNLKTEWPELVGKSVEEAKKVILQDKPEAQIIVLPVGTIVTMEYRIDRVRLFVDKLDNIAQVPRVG

# Variants of: B1
# CONDITION_LABEL: Hordeum vulgare; pH 6.25; 25 °C; GdnHCl; Fluorescence; MES 50 mM; reversible: yes; structure 2CI2; whole UniProt chain shown
VALUE_TYPE: ddG of mutation (higher = less stable) (kcal/mol)
Answer with a number only, understood to be in kcal/mol.

Example results:
> print(dat)
   mutation.id  measurement.units  quantitative.readout
1    K22A E27A           kcal/mol                  1.17
2    L52V V58A           kcal/mol                  1.93
3         K38G           kcal/mol                  1.58

Ask: Entry under review: Q42A . Reported ddG of mutation (higher = less stable)?
Result: 0.54

Ask: Request the reported ddG of mutation (higher = less stable) associated with L41A
Result: 1.21

Ask: Any idea what ddG of mutation (higher = less stable) was measured for L52V V58A F70L ?
Result: 2.84

Ask: Entry under review: K37A . Reported ddG of mutation (higher = less stable)?
Result: 1.13
